Target: PvPI4K (Plasmodium vivax)
Assay: biochemical
RECORDED_METRIC: IC50 (µM)
Report the value in µM with no unit label.

Using the record for FC(F)CN1CCC(Nc2ccnc3ccc(-c4ccc(C(F)(F)F)nc4)nc23)CC1 [Compound 23] , report its IC50.
0.053

----------
Measured pIC50 values are reported for all entries that follow.
Test system: multidrug-resistant strain, K1
Assay: Antiplasmodial activity, parasite lactate dehydrogenase assay, K1
Format: cell-based, Plasmodium falciparum
Details: Plasmodium falciparum, K1, 72 h, parasite lactate dehydrogenase assay over 72 h; read-out: Pf IC50 ± SD K1
Recall that pIC50 is obtained by taking minus log10 of the concentration measured in molar.

Reference set (3 entries):
[[record]]
compound = "Cc1nc(C(F)(F)F)ccc1-c1ccc2nccc(NC3CCN(C)CC3)c2n1"
tested_on = "multidrug-resistant strain, K1"
obs_value = 6.44

[[record]]
compound = "O[C@H]1CNCC[C@@H]1Nc1ccnc2ccc(-c3ccc(C(F)(F)F)nc3)nc12 (racemic)"
tested_on = "multidrug-resistant strain, K1"
obs_value = 6.20

[[record]]
compound = "NC1CCN(c2ccnc3ccc(-c4ccc(C(F)(F)F)nc4)nc23)CC1"
tested_on = "multidrug-resistant strain, K1"
obs_value = 6.32


Using the record for N[C@H]1CCN(c2ccnc3ccc(-c4ccc(C(F)(F)F)nc4)nc23)C1 , report its pIC50.
7.06

Using the record for CN1CCC(Nc2ccnc3ccc(-c4ccc(C(F)(F)F)nc4)nc23)CC1 , report its pIC50.
6.79

Using the record for CN1CCC(Nc2cc(N)nc3ccc(-c4ccc(C(F)(F)F)nc4)nc23)CC1 , report its pIC50.
6.72

Using the record for FC(F)(F)c1ccc(-c2ccc3nccc(NCC4CCNCC4)c3n2)cn1 , report its pIC50.
6.46

Using the record for OCCN1CCC(Nc2ccnc3ccc(-c4ccc(C(F)(F)F)nc4)nc23)CC1 , report its pIC50.
6.41

Using the record for CN1CCC(Nc2ccnc3ccc(-c4cccnc4)nc23)CC1 , report its pIC50.
5.89

Using the record for CC1CNCCC1Nc1ccnc2ccc(-c3ccc(C(F)(F)F)nc3)nc12 (stereo not shown) , report its pIC50.
6.98

Using the record for CN1CCC(Nc2ccnc3ccc(-c4ccc(C#N)nc4)nc23)CC1 , report its pIC50.
6.14

----------
Biological target: cytochrome P450 2C19 (Homo sapiens, UniProt P33261)
Sequence (P33261 whole entry): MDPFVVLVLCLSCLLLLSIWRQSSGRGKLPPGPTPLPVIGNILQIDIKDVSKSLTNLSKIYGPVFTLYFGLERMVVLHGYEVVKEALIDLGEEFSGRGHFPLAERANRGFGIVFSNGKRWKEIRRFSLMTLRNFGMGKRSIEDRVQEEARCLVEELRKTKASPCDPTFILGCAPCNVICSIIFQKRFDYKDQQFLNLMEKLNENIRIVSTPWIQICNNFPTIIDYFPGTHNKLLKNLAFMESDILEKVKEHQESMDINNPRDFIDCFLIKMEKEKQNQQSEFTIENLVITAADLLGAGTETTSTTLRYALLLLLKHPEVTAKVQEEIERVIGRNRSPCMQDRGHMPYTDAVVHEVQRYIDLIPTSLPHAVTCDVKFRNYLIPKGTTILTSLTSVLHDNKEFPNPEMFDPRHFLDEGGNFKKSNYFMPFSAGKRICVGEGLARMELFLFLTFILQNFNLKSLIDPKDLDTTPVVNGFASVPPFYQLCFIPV
Experiment: Cytochrome P450 inhibition, 2C19
Assay type: in vitro ADME
RECORDED_METRIC: pIC50
Recall that pIC50 is obtained by taking minus log10 of the concentration measured in molar.

Using the record for N[C@H]1CCN(c2ccnc3ccc(-c4ccc(C(F)(F)F)nc4)nc23)C1 , report its pIC50.
4.74

----------
Target: cytochrome P450 2C9 (Homo sapiens, UniProt P11712)
Sequence (P11712 whole entry): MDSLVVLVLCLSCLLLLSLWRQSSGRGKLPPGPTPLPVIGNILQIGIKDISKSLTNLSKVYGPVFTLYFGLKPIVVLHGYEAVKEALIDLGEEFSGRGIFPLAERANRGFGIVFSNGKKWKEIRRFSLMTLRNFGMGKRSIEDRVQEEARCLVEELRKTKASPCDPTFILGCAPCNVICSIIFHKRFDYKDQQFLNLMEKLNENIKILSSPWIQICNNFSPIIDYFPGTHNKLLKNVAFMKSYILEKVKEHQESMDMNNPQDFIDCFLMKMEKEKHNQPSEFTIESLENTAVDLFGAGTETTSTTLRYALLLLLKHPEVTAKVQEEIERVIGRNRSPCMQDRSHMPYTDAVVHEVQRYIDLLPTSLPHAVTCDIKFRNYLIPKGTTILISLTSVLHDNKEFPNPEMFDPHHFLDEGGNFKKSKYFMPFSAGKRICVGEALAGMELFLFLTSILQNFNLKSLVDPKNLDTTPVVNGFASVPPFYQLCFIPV
Experiment: Cytochrome P450 inhibition, 2C9
Type: in vitro ADME
pIC50: −log10 of the molar value.
Measured pIC50 values are reported for all entries that follow.

[[record]]
molecular_string = "FC(F)(F)c1ccc(-c2ccc3nccc(N[C@@H]4CCNC4)c3n2)cn1"
recorded_metric = "pIC50"
obs_value = "< 4.70"


Now for another entry.
Using the record for N[C@H]1CCN(c2ccnc3ccc(-c4ccc(C(F)(F)F)nc4)nc23)C1 , report its pIC50.
< 4.70

----------
Measured pIC50 values are reported for all entries that follow.
Target: PvPI4K (Plasmodium vivax)
Test: biochemical
Details: purified recombinant PvPI4K, 10 μM ATP, ADP-Glo; mean of N ≥ 2; read-out: PvPI4K IC50 ± SD
Recall that pIC50 is obtained by taking minus log10 of the concentration measured in molar.

Reference set (3 entries):
[[record]]
molecule = "O[C@H]1CNCC[C@@H]1Nc1ccnc2ccc(-c3ccc(C(F)(F)F)nc3)nc12 (racemic)"
obs_value = 6.01

[[record]]
molecule = "CN1CCC(Nc2ccnc3ccc(-c4ccc(C#N)nc4)nc23)CC1"
obs_value = 6.17

[[record]]
molecule = "CC(=O)N[C@@H]1CCN(c2ccnc3ccc(-c4cccc(S(C)(=O)=O)c4)nc23)C1"
obs_value = 7.12


Now for another entry.
Notebook: pull reported pIC50 for PvPI4K (Plasmodium vivax), entry N[C@H]1CCN(c2ccnc3ccc(-c4ccc(C(F)(F)F)nc4)nc23)C1
5.92

----------
Measured pIC50 values are reported for all entries that follow.
Biological target: PvPI4K (Plasmodium vivax, UniProt A5KB26)
Sequence (A5KB26 entry or part of it): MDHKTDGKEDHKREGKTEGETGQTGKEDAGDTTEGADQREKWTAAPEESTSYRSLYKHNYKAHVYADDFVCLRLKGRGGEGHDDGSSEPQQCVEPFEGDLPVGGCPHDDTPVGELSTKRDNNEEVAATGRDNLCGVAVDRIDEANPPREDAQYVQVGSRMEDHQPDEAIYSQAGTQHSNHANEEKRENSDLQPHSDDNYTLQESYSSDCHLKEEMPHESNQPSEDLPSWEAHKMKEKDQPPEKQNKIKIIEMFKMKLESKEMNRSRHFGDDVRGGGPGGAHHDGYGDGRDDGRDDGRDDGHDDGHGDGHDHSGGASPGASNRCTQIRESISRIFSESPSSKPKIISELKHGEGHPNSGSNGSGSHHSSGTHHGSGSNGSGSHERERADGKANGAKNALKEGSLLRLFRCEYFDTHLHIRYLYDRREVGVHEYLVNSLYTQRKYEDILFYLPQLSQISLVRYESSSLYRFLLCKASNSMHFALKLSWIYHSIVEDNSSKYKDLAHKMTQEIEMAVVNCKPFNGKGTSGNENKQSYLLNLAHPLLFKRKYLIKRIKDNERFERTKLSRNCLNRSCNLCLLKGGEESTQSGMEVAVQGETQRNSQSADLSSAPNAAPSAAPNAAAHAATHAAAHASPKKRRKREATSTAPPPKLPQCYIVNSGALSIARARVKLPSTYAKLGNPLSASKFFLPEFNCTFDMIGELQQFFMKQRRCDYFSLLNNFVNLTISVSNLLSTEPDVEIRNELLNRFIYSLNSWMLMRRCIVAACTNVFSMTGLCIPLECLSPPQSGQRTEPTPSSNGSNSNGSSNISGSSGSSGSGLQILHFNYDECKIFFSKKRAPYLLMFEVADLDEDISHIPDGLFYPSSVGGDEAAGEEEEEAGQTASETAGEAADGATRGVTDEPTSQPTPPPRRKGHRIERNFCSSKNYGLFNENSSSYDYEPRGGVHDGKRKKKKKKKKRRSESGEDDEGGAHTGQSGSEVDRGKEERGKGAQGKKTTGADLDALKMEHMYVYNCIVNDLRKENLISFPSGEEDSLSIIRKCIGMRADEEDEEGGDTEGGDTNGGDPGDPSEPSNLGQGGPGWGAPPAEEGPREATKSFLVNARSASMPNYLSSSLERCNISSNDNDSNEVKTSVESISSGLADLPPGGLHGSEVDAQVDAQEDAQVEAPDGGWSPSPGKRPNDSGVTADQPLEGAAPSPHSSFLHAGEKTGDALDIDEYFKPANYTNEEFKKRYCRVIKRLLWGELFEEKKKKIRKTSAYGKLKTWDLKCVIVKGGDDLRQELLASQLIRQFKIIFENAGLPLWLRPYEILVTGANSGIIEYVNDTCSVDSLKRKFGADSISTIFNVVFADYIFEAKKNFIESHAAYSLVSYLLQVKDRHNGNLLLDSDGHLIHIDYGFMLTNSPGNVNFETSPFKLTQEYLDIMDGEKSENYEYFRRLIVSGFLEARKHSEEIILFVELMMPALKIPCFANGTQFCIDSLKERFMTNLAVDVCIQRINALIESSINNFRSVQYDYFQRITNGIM
Experiment: biochemical
Conditions: purified recombinant PvPI4K, 10 μM ATP, ADP-Glo; mean of N ≥ 2; read-out: PvPI4K IC50 ± SD
Recall that pIC50 is obtained by taking minus log10 of the concentration measured in molar.

Reference set (3 entries):
[[record]]
compound = "CS(=O)(=O)c1cccc(-c2ccc3nccc(N4CC[C@@H](N)C4)c3n2)c1"
obs_value = 6.70

[[record]]
compound = "O[C@H]1CNCC[C@H]1Nc1ccnc2ccc(-c3ccc(C(F)(F)F)nc3)nc12 (relative stereo)"
obs_value = 6.43

[[record]]
compound = "FC(F)(F)c1ccc(-c2ccc3nccc(N[C@H]4CCNC4)c3n2)cn1"
obs_value = 6.79


Now for another entry.
Using the record for CC1CNCCC1Nc1ccnc2ccc(-c3ccc(C(F)(F)F)nc3)nc12 (stereo not shown) , report its pIC50.
6.88

----------
Assay: Solubility, miniaturized shake flask method
Conditions: PBS, pH 6.5
RECORDED_METRIC: solubility at 20 h
Give the figure together with its unit, number first.

Reference set (2 entries):
[[record]]
compound = "N[C@H]1CCN(c2ccnc3ccc(-c4ccc(C(F)(F)F)nc4)nc23)C1 [Compound 14]"
recorded_metric = "solubility at 20 h"
obs_value = "200 µM"

[[record]]
compound = "CN1CCC(Nc2ccnc3ccc(-c4ccc(C(F)(F)F)nc4)nc23)CC1 [Compound 21]"
recorded_metric = "solubility at 20 h"
obs_value = "160 µM"


Using the record for FC(F)(F)c1ccc(-c2ccc3nccc(N[C@@H]4CCNC4)c3n2)cn1 [Compound 16] , report its solubility at 20 h.
195 µM

----------
Measured IC50 values are reported for all entries that follow.
Tested on: P. falciparum NF54 strain
Assay: Antiplasmodial activity, parasite lactate dehydrogenase assay, NF54
Assay type: cell-based, Plasmodium falciparum
Conditions: Plasmodium falciparum, NF54, 72 h, parasite lactate dehydrogenase assay over 72 h; read-out: Pf IC50 ± SD NF54
Report the value in µM with no unit label.

Reference set (2 entries):
[[record]]
molecule = "CC(=O)N[C@@H]1CCN(c2ccnc3ccc(-c4cccc(S(C)(=O)=O)c4)nc23)C1"
recorded_metric = "IC50"
output_unit = "µM"
obs_value = 0.89

[[record]]
molecule = "CN1CCC(Nc2ccnc3ccc(-c4cccnc4)nc23)CC1"
recorded_metric = "IC50"
output_unit = "µM"
obs_value = 0.526


Using the record for CN1CCC(Nc2cc(N)nc3ccc(-c4ccc(C(F)(F)F)nc4)nc23)CC1 , report its IC50.
0.04

Using the record for CN1CCC(Nc2ccnc3ccc(-c4ccc(OCCCO)nc4)nc23)CC1 , report its IC50.
0.203

Using the record for CNC(=O)c1ccc(-c2ccc3nccc(NC4CCN(C)CC4)c3n2)cn1 , report its IC50.
0.4

Using the record for CS(=O)(=O)c1ccc(-c2cnc(N)c(-c3ccc(C(F)(F)F)nc3)c2)cc1 [MMV390048, reference compound] , report its IC50.
0.036

Using the record for CN1CCC(Nc2ccnc3ccc(-c4ccc(C#N)nc4)nc23)CC1 , report its IC50.
0.16

Using the record for FC(F)(F)c1ccc(-c2ccc3nccc(N[C@H]4CCNC4)c3n2)cn1 , report its IC50.
0.07

----------
System: P. falciparum PI4K conditional knockdown line
Experiment: microbe, parasite or virus in culture
Type: cell-based, Plasmodium falciparum
Settings: read-out: ABS IC50 for PfPI4K cKD, N=3, no aTc; experiment N=3; no aTc (PI4K knockdown); 72 hours
RECORDED_METRIC: IC50 (nM)
Report the value in nM with no unit label.

Notebook: pull reported IC50 for P. falciparum PI4K conditional knockdown line, entry CS(=O)(=O)c1ccc(-c2cnc(N)c(-c3ccc(C(F)(F)F)nc3)c2)cc1 [MMV390048, reference compound]
3.31

----------
Test: in vivo
Conditions: zebrafish, in vivo; concentration at which 50% of larvae die at 96 h post fertilization
RECORDED_METRIC: LC50 at 96 h (µM)
Report the value in µM with no unit label.

Using the record for CCN(CC)c1ccc(C=O)cc1 [DEAB, Diethylaminobenzaldehyde] , report its LC50 at 96 h.
4.6

----------
Assay: Caco-2 permeability
Type: in vitro ADME
Settings: human, A > B
RECORDED_METRIC: Papp A→B (×10⁻⁶ cm/s)
Report the value in ×10⁻⁶ cm/s with no unit label.

Using the record for FC(F)(F)c1ccc(-c2ccc3nccc(N[C@@H]4CCNC4)c3n2)cn1 , report its Papp A→B.
2.6

----------
System: P. falciparum PI4K conditional knockdown line
Assay: microbe, parasite or virus in culture
Format: cell-based, Plasmodium falciparum
Details: Plasmodium falciparum, 72 h, read-out: ABS IC50 for PfPI4K cKD, N=2, +aTc, experiment N=2; +aTc (500 nM, control conditions); 72 hours
Measured IC50 values are reported for all entries that follow.
Give the figure together with its unit, number first.

[[record]]
molecule = "CS(=O)(=O)c1ccc(-c2cnc(N)c(-c3ccc(C(F)(F)F)nc3)c2)cc1 [MMV390048, reference compound]"
recorded_metric = "IC50"
obs_value = "29 nM"

[[record]]
molecule = "N[C@H]1CCN(c2ccnc3ccc(-c4ccc(C(F)(F)F)nc4)nc23)C1 [Compound 14]"
recorded_metric = "IC50"
obs_value = "37 nM"


Notebook: pull reported IC50 for P. falciparum PI4K conditional knockdown line, entry FC(F)(F)c1ccc(-c2ccc3nccc(N[C@@H]4CCNC4)c3n2)cn1 [Compound 16]
118 nM
